Tested on: CAKI-1 renal
Experiment: NCI-60 one-dose screen, 48 h
Conditions: 10 µM unless noted
Compounds without any hit were thinned out: in the full panel of roughly 83,000, 20% have a hit. The source made the active and inactive calls. How the source made its calls: active means growth percent below 10; inactive means the rest.
Outcome (select one): active, inactive

Consider the following illustrative entries.
CC1(C)NCCC[C@]2(C)[C@H]3C/C(=N\O)C4[C@@H]5C[C@@](C)(CO)CC[C@]5(C)CC[C@@]4(C)[C@]3(C)CC[C@@H]12 (some centres undefined) ... inactive
O=C(Nc1nc2ccc([N+](=O)[O-])cc2s1)Nc1ccccc1Cl ... inactive
N/C(=N\C(N)=N\c1nc2ccccc2s1)c1ccncc1Cl ... inactive
COc1ccc(N2CCN(C3=C(Cl)C(=O)C(C)=C(C)C3=O)CC2)cc1 ... inactive
O=C(CSc1nc2ccccc2c(=O)n1-c1ccccc1)Nc1ccc(-c2nc3ccc([N+](=O)[O-])cc3[nH]2)cc1 ... inactive
CCOC(=O)C(=O)CC(=O)N1C(=S)NC(=O)C1CC(C)C (centres undefined) ... inactive

// query Given CCCn1cnc2c(c1=N)C(c1ccc(Cl)cc1)c1sc3c(C)cccc3c1O2 (centres undefined) , state the outcome it received in this test.
// result inactive

// query Called result for COc1cc2nc(Cl)nc(Nc3cccc(C4=Nc5c(N)nc(N)nc5NC(c5ccc(Br)cc5)C4)c3)c2cc1OC (centres undefined)
// result inactive

// query Which outcome did this test record for the compound CN1CCN(Cc2ccc(NC(=O)c3cncc(C#Cc4cnc5ccc(N6CCN(C)CC6)nn45)c3)cc2C(F)(F)F)CC1 ?
// result active

###

Test system: CCRF-CEM leukemia
Experiment: NCI-60 one-dose screen, 48 h
Settings: 10 µM unless noted
This is part of a sample that, as a whole, favours compounds with a hit. Of some 83,000 tested, about 20% had one in any assay. Activity calls are given as the source filed them. How the source made its calls: active means growth percent below 10; inactive means the rest.
Thanks in advance; please answer with one of these: class 1 = active, class 0 = inactive

NC(N)=Nc1ccc(Oc2cccc(Nc3ccc(Cl)c(C(F)(F)F)c3)c2)cn1 ... class 1
c1n[nH]cc1-c1nc2ccc3[nH]ncc3c2c2c1CCCC2 ... class 0
COc1cc(-c2nc3sccn3c2-c2ccnc(S(C)(=O)=O)n2)ccc1F ... class 0
CCOC(=O)c1c(N)c(C#N)cn1-c1cc(OC)c(OC)c(OC)c1 ... class 0

// query Please let me know the test result on file for COc1ccc(C(=O)CSc2nc3c(c(Nc4ccc(S(N)(=O)=O)cc4)n2)CCCC3)cc1 .
// result class 0

###

Test system: OVCAR-8 ovarian
Assay: NCI-60 one-dose screen, 48 h
Conditions: 10 µM unless noted
About 83,000 compounds went through this panel and 20% of them were active in at least one assay; those are over-represented in the sample as a whole. Activity calls are given as the source filed them. Rule for the calls: active = growth percent below 10; inactive = the rest.
Hello, when you answer, please use one of the following outcomes: active, inactive

# count of solved cases: 8
Cc1cc(C)cc(C(=O)Nc2cccc(C#Cc3cccc4[nH]nc(N)c34)c2)c1 ... inactive
CCOc1ccc(C(=O)Nc2ncc(Cc3ccc(F)cc3)s2)cc1 ... inactive
C=C(C)[C@@H]1CC[C@]2(COP(=O)(OCC)OCC)CC[C@]3(C)[C@H](CC[C@@H]4[C@@]5(C)CCCNC(C)(C)[C@@H]5CC[C@]43C)[C@@H]12 ... inactive
Cc1ccc2c(c1)Oc1nc(N)c(C#N)c(N)c1C2Sc1ccc(F)cc1 (centres undefined) ... active
Cc1ccc(-c2cc3nc(C(Cl)Cl)nc(-c4ccco4)n3n2)cc1 ... inactive
CCCCCc1ccc(S(=O)(=O)Nc2cccc(-c3csc(NC(=O)CNCCN(C)C)n3)c2)cc1 ... inactive
COc1cc(-c2nc(SC(C)C)n(C(C)C)c(=O)c2C#N)ccc1OCc1ccccc1 ... inactive
COc1ccc(NC2=C(Cl)C(=O)c3nc(C)ccc3C2=O)cc1OC ... inactive

// query Outcome? CC(C)(C)n1cc(-c2ccnc(NCCCNS(=O)(=O)c3cccc(F)c3)n2)c(-c2ccc(Cl)c(O)c2)n1
// result inactive

// query How did this test come out for CCC1=Cc2cc(OC)ccc2OC12C=Cc1cc(OC)ccc1O2 (centres undefined) ?
// result inactive

// query Given CC(C)(C)c1ccc(CC(=O)Nc2sc3c(c2C(N)=O)CCC(=O)C3)cc1 , state the outcome it received in this test.
// result inactive

// query What was the test verdict on Cc1cc(C)c(N2C(=O)CC(Nc3ccc(Cl)cc3Cl)C2=O)c(C)c1 (centres undefined) ?
// result inactive

// query Please share the test call associated with O=C1CCCC2=C1C(c1c[nH]c3ccc(Br)cc13)Cc1cc(Br)ccc1N2 (centres undefined) .
// result inactive

// query Would you mind telling me which call this test gave COc1cccc2c1CN(C(=O)c1ccc(O)c(C(=O)N3Cc4ccc(OCCC[P+](c5ccccc5)(c5ccccc5)c5ccccc5)cc4C3)c1)C2 ?
// result inactive

// query Could you kindly confirm the outcome this assay logged for C#CCOC(=O)[C@@H]1CCCN1CC#C ?
// result inactive

// query Could you please tell me the result logged for CCCCCc1ccc(S(=O)(=O)Nc2cc(-c3csc(NC(=O)CN4CCN(C)CC4)n3)ccc2N2CCN(C)CC2)cc1 in this assay?
// result inactive

// query Recorded test outcome, item CNC(=O)c1cc(Oc2ccc3nc(NC(=O)c4cc(N5CCOCC5)cc(C(F)(F)F)c4)sc3c2)ccn1
// result inactive

// query Recorded test call requested for Cc1c(F)cc(C(N)=O)cc1NCC(=O)Nc1ccc([N+](=O)[O-])cc1
// result inactive

// query // return assay outcome for COc1cc(/C=C/C(=O)c2ccc(NC(=O)CSc3nnc(-c4ccc(-c5nc6ccc(Cl)cc6[nH]5)cc4)o3)cc2)cc(OC)c1OC
// result inactive
